Molecular target: T1, human C5aR (CD88) (human, UniProt P21730 1-350)
T1 sequence (looked up): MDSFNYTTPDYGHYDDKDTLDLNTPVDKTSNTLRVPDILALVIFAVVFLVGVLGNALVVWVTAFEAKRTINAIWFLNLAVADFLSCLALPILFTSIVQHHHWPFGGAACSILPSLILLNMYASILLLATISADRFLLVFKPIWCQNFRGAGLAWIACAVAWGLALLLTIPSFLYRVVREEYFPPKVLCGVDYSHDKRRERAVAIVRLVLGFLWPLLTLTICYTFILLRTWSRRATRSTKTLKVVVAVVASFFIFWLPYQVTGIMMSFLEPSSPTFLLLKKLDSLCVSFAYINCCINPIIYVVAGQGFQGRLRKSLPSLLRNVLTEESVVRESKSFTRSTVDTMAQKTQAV
Experiment: cell-based or functional assay
Positions of bridges follow the written chain, without caps; N, C: chain ends. Non-standard residues stand in square brackets, D forms with d. No end group written: not given here. Fck = HO-CH2-(CHOH)4-C=N-O-CH2-CO- (oxime-linked sugar acyl cap); Phe(4-guanidino) = N=C(N)Nc1ccc(C[C@H](N)C(=O)O)cc1; dCha = N[C@H](CC1CCCCC1)C(=O)O; Nle = CCCC[C@H](N)C(=O)O; Orn = NCCC[C@H](N)C(=O)O
readout name: IC50 activity group, enzyme release assay

Below are worked cases with known answers.
| binder | measurement |
| --- | --- |
| Ac-F[Orn]P[dCha]W[Phe(4-guanidino)] (lactam (positions not given here); not fully specified (bridges); printed as Ac-Phe-[Orn-Pro-cha-Trp-Guf]) [Ac-Phe-[Orn-Pro-cha-Trp-Guf]] | ≤ 2000 nM |
| Ac-F[Orn]P[dCha]WK (lactam (positions not given here); not fully specified (bridges); printed as Ac-Phe-[Orn-Pro-cha-Trp-Lys]) [Ac-Phe-[Orn-Pro-cha-Trp-Lys]] | > 2000 nM |
| {Ph‑CH2}-[Orn]P[dCha]W[Nle] (lactam 1-C) [Ph-CH2-[Orn-Pro-cha-Trp-Nle]] | ≤ 50 nM |

Measured IC50 activity group, enzyme release assay, {Ph‑CH2}-[Orn]P[dCha]WF (lactam 1-C) [Ph-CH2-[Orn-Pro-cha-Trp-Phe]] : ≤ 50 nM

Measured IC50 activity group, enzyme release assay, Fck-F[Orn]P[dCha]W[Nle] (lactam 2-C (inferred)) [Fck-Phe-[Orn-Pro-cha-Trp-Nle]] : ≤ 200 nM
